Each entry below carries its recorded pKd.
targetDesc: PICK1, Q9NRD5
Sequence (Q9NRD5 17-115): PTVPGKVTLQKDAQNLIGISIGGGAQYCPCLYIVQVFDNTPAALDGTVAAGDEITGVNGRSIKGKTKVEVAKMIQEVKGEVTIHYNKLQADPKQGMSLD
experiment: holdup assay
Set-up: key: below the threshold = too weak to quantify, mostly under pKd 3.1 to 4
details: plain residues with an end cap or a label only (N-terminal biotin on a linker: ado-ado)
Number, no unit, nothing else.

DPAESMESLV [PTPRG, P23470] ... 4.13

Proceeding to the next binder to report its pKd.
Qu. Which measured pKd value corresponds to DTKNYKQTSV [CRIPT, Q9P021] ?
Ans. 4.15

Source listed as paper PMC9482650.
